test: chemical genetic growth profiling, strain panel (AID 1159580);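 note: tested at 20 µM; growth read once vehicle control cultures reached saturation at 30 °C; 1 = growth at the plate median or of vehicle wells; lower values mean less growth of the strain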; details: S. cerevisiae deletion strains, growth OD, locus YKL101W, strain HSL1, active compounds read low
The campaign covered roughly 5,500 compounds. About 2,000 (36%) were called active. Roughly 18% stayed inconclusive and do not appear here. This is one part of the list.
# normalized growth annotations

| molecule | normalized growth |
| --- | --- |
| C#Cc1cccc(N=Cc2cc(Cl)cc(Br)c2O)c1 | 0.128 (active) |
| CC(C)(C)c1csc(NC(=O)c2ccc(Cl)cc2Cl)n1 | 0.901 (inactive) |
| CC(C)(C)c1csc(NNC(=O)c2ccc(Cl)cc2)n1 | 0.829 (inactive) |
| N/C(CSc1ccc(Cl)cc1)=N/OC(=O)c1ccc(C(F)(F)F)cc1 | 0.863 (inactive) |
| O=C(NNC(=O)c1csc(-c2cccs2)n1)c1ccc(C(F)(F)F)cc1 | 0.59 (active) |
| Cc1ccc(C(=O)O/N=C(/N)CSc2ncccc2C(F)(F)F)cc1 | 1 (inactive) |
| CCC(C)COC(=O)/C=C/c1ccc(N=Cc2ccc(OC)cc2)cc1 (stereo unspecified) | 0.831 (inactive) |
| CC(C)CSc1nnc(CSCc2nc(-c3ccc(Cl)cc3)cs2)n1C | 0.925 (inactive) |
| CC(C)(C)c1cc2nc(C(F)(F)F)cc(NNC(=O)c3ccc(Cl)cc3)n2n1 | 1.01 (inactive) |
| Cc1cc(C(=O)O/N=C(/N)CSc2ncccc2C(F)(F)F)no1 | 1 (inactive) |

Q) // lookup normalized growth for O=C(CSCc1nc(-c2ccc(Cl)cc2)cs1)N/N=C\c1cccs1
A) 0.921 (inactive)

* * *

# normalized growth annotations
assay: chemical genetic growth profiling, strain panel (AID 1159580); settings: S. cerevisiae deletion strains, growth OD, locus YOR265W, strain rbl2, active compounds read low
Out of some 5,500 compounds screened, about 2,000 (36%) were called active. Not shown: some 18% with an inconclusive outcome. The list shows a part of the results.

Below are worked cases with known answers.
| molecule | normalized growth |
| --- | --- |
| CC(=O)Oc1ccc(-c2cc(=O)c3c(OC(C)=O)cc(OC(C)=O)cc3o2)cc1 | 0.981 (inactive) |
| CC(=O)OCC(=O)[C@@]1(O)CCC2C3CC[C@@H]4C[C@H](O)CC[C@]4(C)C3C(=O)C[C@@]21C (stereo not given in full) | 1.02 (inactive) |
| ClC(Cl)=C(c1ccc(Cl)cc1)c1ccc(Cl)cc1 | 0.992 (inactive) |
| CCC(CCC(C)[C@H]1CCC2C3CC=C4C[C@@H](O)CC[C@]4(C)C3CC[C@@]21C)C(C)C (stereo not given in full) | 1.02 (inactive) |
| CC1(C)O[C@@H]2CC3C4C[C@H](F)C5=CC(=O)C=CC5(C)C4C(O)CC3(C)[C@]2(C(=O)CO)O1 (stereo not given in full) | 1.01 (inactive) |

Q) // lookup normalized growth for CN(C)CCC=C1c2ccccc2C=Cc2ccccc21
A) 0.983 (inactive)

Q) Same question for CCCCCCCCCCCCCCCC[n+]1ccccc1 please.
A) 0.0533 (active)

Q) Same question for CC(=O)[C@H]1CCC2C3CC=C4C[C@@H](OC(=O)CCC(=O)O)CC[C@]4(C)C3CC[C@@]21C (stereo not given in full) please.
A) 0.981 (inactive)

Q) Same question for C[N+]1(CCCCC[N+]2(C)CCCC2)CCCC1 please.
A) 0.994 (inactive)

Q) Same question for COc1ccc(-c2cc(=O)c3c(OC(C)=O)cc(OC(C)=O)cc3o2)cc1 please.
A) 0.99 (inactive)

* * *

experiment: chemical genetic growth profiling, strain panel (AID 1159580); conditions: S. cerevisiae deletion strains, growth OD, locus YKL068W, active compounds read low
Among all 5,500 compounds or so, about 2,000 (36%) were called active. Roughly 18% stayed inconclusive and do not appear here. Some of the results follow.
test readout: normalized growth
Form field (numeric): enter value without unit.

Below are worked cases with known answers.
| compound | normalized growth |
| --- | --- |
| COc1cccc(-c2cc(=O)c3ccc(OC)cc3o2)c1 | 0.931 |
| COc1c2c(cc3c1OCO3)CC[N+](C)=C2 | 0.996 |
| O=c1c(-c2cc(O)c(O)c(O)c2)coc2cc(O)c(O)c(O)c12 | 1.01 |
| COc1cc2cc[n+]3cc4c(OC)c(OC)ccc4cc3c2cc1OC | 0.963 |
| CC1=NCCc2c1[nH]c1cc(O)ccc21 | 0.993 |

Q) // lookup normalized growth for C[n+]1cc2c3c(ccc2c2ccc4cc5c(cc4c21)OCO5)OCO3
A) 0.964

Q) Same question for CN(C)CC/C=C1/c2ccccc2COc2ccccc21 please.
A) 1.02

Q) Same question for Cc1cc(=O)c2c(O)c3c(cc2o1)OCC(C)CC3 (configuration not stated) please.
A) 0.921

Q) Same question for Cn1nnnc1SCC1=C(C(=O)O)N2C(=O)C(NC(=O)C(O)c3ccccc3)C2SC1 (configuration not stated) please.
A) 1.01

Q) Same question for COc1ccc2c(=O)cc(-c3ccccc3OC)oc2c1 please.
A) 0.963

Q) Same question for COc1ccc2cc3[n+](cc2c1OC)CCc1cc2c(cc1-3)OCO2 please.
A) 1

Q) Same question for O=c1c2ccccc2[se]n1-c1ccccc1 please.
A) 0.0623

* * *

# normalized growth annotations
test: chemical genetic growth profiling, strain panel (AID 1159580);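 note: tested at 20 µM; growth read once vehicle control cultures reached saturation at 30 °C; 1 = growth at the plate median or of vehicle wells; lower values mean less growth of the strain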; details: S. cerevisiae deletion strains, growth OD, locus YOR061W, strain CKA2, active compounds read low
The whole screen tested about 5,500 compounds, of which about 2,000 (36%) were called active. Roughly 18% stayed inconclusive and do not appear here. The list shows a part of the results.
Form field (numeric): enter value without unit.

Below are worked cases with known answers.
| compound | normalized growth |
| --- | --- |
| CC(=O)Oc1cc(-c2coc3cc(OC(C)=O)c(OC(C)=O)c(OC(C)=O)c3c2=O)cc(OC(C)=O)c1OC(C)=O | 0.887 |
| COc1c(O)cc2c(-c3ccccc3)cc(=O)oc2c1OC | 1 |
| CC1=NCCc2c1[nH]c1cc(O)ccc21 | 0.978 |
| N[C@@H]1CONC1=O | 1.02 |
| COc1cccc2c1cc([N+](=O)[O-])c1c(C(=O)O)cc3c(c12)OCO3 | 1.02 |
| CN1CCN2c3ccccc3Cc3ccccc3C2C1 (configuration not stated) | 1.02 |

Continue with the next compound.
Q) // lookup normalized growth for CSc1ccc2c(c1)C(N1CCN(C)CC1)Cc1ccccc1S2 (configuration not stated)
A) 0.122

* * *

assay: chemical genetic growth profiling, strain panel (AID 1159580);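 note: tested at 20 µM; growth read once vehicle control cultures reached saturation at 30 °C; 1 = growth at the plate median or of vehicle wells; lower values mean less growth of the strain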; conditions: S. cerevisiae deletion strains, growth OD, locus YDR334W, strain swr1, active compounds read low
Screen size: about 5,500 compounds; about 2,000 (36%) were called active. About 18% were inconclusive and are not listed. This is one part of the list.
// returns 0 unless normalized growth is strictly below 1, in which case 1

Known results for molecules:
| molecule | assigned class |
| --- | --- |
| O=C(O)c1cn(-c2ccc(F)cc2)c2cc(N3CCNCC3)c(F)cc2c1=O | 1 |
| CCC(CCC(C)[C@H]1CCC2C3CC=C4C[C@@H](O)CC[C@]4(C)C3CC[C@@]21C)C(C)C (some centres not stated) | 0 |
| COC(=O)C1=C(C)NC(C)=C(C(=O)OCCN(C)Cc2ccccc2)C1c1cccc([N+](=O)[O-])c1 (configuration not stated) | 1 |
| CN(C)CCC=C1c2ccccc2C=Cc2ccccc21 | 1 |
| COc1ccc(-c2cc(=O)c3ccccc3o2)cc1OC | 1 |

Q) Just wondering, is normalized growth of COC(=O)C1=C(C)NC(C)=C(C(=O)OCC(C)C)C1c1ccccc1[N+](=O)[O-] (configuration not stated) below 1?
A) 1

Q) Same question for COc1c(O)cccc1O please.
A) 0

Q) Same question for COc1ccc(-c2cc(=O)c3ccccc3o2)cc1 please.
A) 1

Q) Same question for O=c1c(-c2cc(O)c(O)c(O)c2)coc2cc(O)c(O)c(O)c12 please.
A) 1

Q) Same question for CC(=O)[C@H]1CCC2C3CC=C4C[C@@H](O)CC[C@]4(C)C3CC[C@@]21C (some centres not stated) please.
A) 0

Q) Same question for CC(C)c1ccc2c(c1O)CC[C@H]1C3=C(CC[C@]21C)C(=O)OC3 please.
A) 1

Q) Same question for CNCCC=C1c2ccccc2CCc2ccccc21 please.
A) 1

* * *

# normalized growth annotations
experiment: chemical genetic growth profiling, strain panel (AID 1159580);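 note: tested at 20 µM; growth read once vehicle control cultures reached saturation at 30 °C; 1 = growth at the plate median or of vehicle wells; lower values mean less growth of the strain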; details: S. cerevisiae deletion strains, growth OD, locus YDL035C, strain GPR1, active compounds read low
Out of some 5,500 compounds screened, about 2,000 (36%) were called active. Another 18% or so got no clear call; they are omitted. This is one part of the list.

Below are worked cases with known answers.
| compound | test readout | val |
| --- | --- | --- |
| CC(=O)O[C@H]1C[C@H](O[C@H]2[C@@H](O)C[C@H](O[C@H]3[C@@H](O)C[C@H](O[C@H]4CC[C@@]5(C)C(CCC6C5C[C@@H](O)[C@]5(C)[C@@H](C7=CC(=O)OC7)CC[C@]65O)C4)O[C@@H]3C)O[C@@H]2C)O[C@H](C)[C@H]1O[C@@H]1O[C@H](CO)[C@@H](O)[C@H](O)[C@H]1O (some centres undefined) | normalized growth | 1.03 (inactive) |
| C=C1C2CC[C@@]3(C)[C@H](c4ccoc4)OC(=O)C[C@]13O[C@H]1CC(=O)C(C)(C)[C@H](C(O)C(=O)OC)[C@@]21C (some centres undefined) | normalized growth | 1.01 (inactive) |
| C[C@@H]1CC[C@@]2(OC1)OC1C(O)C3C4CC[C@H]5C[C@H](O[C@@H]6O[C@H](CO)[C@H](O[C@@H]7O[C@H](CO)[C@@H](O)[C@H](O[C@@H]8OC[C@@H](O)[C@H](O)[C@H]8O)[C@H]7O[C@@H]7O[C@H](CO)[C@H](O)[C@H](O[C@@H]8O[C@H](CO)[C@@H](O)[C@H](O)[C@H]8O)[C@H]7O)[C@H](O)[C@H]6O)[C@H](O)C[C@]5(C)C4CC[C@]3(C)C1[C@@H]2C (some centres undefined) | normalized growth | 0.0509 (active) |

Q) // lookup normalized growth for NS(=O)(=O)c1cc2c(cc1C(F)(F)F)NCNS2(=O)=O
A) 1.03 (inactive)
